Test system: HIV IIIB
test_name: XTT Cell Culture Assay, cells infected with HIV IIIB (Example 35)
Type: cell-based
test_context: Human immunodeficiency virus 1, IIIB, read-out: Cell Culture IC50

compound	IC50
O=[N+]([O-])c1cccc(CO[C@@H]2[C@H](O)[C@@H](O)[C@@H](OCc3cccc([N+](=O)[O-])c3)[C@@H](Cc3ccccc3)[S+]([O-])[C@@H]2Cc2ccccc2)c1 (some centres unmarked)	< 2000 nM
O=[N+]([O-])c1cccc(CO[C@@H]2[C@H](O)[C@@H](O)[C@@H](OCc3cccc([N+](=O)[O-])c3)[C@@H](Cc3ccccc3)S(=O)(=O)[C@@H]2Cc2ccccc2)c1	< 2000 nM

Values were extracted from patent US5705524A.
